All figures here come from a melting point compilation (Tetko et al.; mined from patent text by program, amines drawn as free bases though some values may be those of a salt).

Overview of recorded melting point for various molecules

>  <MOLECULE>
O=C1N(CC2CCCO2)c2ccccc2C12COc1cc(O)ccc12 (centres undefined)

>  <melting point>
72 to 74 °C

$$$$
>  <MOLECULE>
O=c1c2c(n(-c3ccccc3)c3ccccc13)OCC2

>  <melting point>
220 to 221 °C

$$$$
>  <MOLECULE>
CCCCc1ncc(/C=C(/C=C/C(=O)O)Cc2cccs2)n1Cc1ccccc1Cl

>  <melting point>
191 to 192 °C

$$$$
>  <MOLECULE>
O=C(O)c1ccc2c(c1)OCC(=O)N2Cc1ccccc1

>  <melting point>
230 °C

$$$$
>  <MOLECULE>
COc1cc(OC)cc(N2CCN(C(=O)[C@](C)(C#N)[C@H](c3ccccc3OC)c3cccc4ccccc34)CC2)c1

>  <melting point>
186 to 188 °C

$$$$
>  <MOLECULE>
O=[N+]([O-])c1cc(Cl)ncc1CCc1ccccc1

>  <melting point>
76 to 78 °C

$$$$
>  <MOLECULE>
O=[N+]([O-])c1ccc2c(cnn2Cc2ccccc2[N+](=O)[O-])c1

>  <melting point>
102 to 103 °C

$$$$
>  <MOLECULE>
O=C1OCCN1CCCC(c1cc(F)ccc1F)S(=O)(=O)c1ccc(Cl)cc1 (centres undefined)

>  <melting point>
156 to 159 °C

$$$$
>  <MOLECULE>
C#CCc1c(C)nc(N)[nH]c1=O

>  <melting point>
245 to 249 °C

$$$$

---

Overview of recorded melting point for various molecules

>  <MOLECULE>
ONC(CCc1ccccc1)CCc1ccccc1

>  <melting point>
54 to 55 °C

$$$$
>  <MOLECULE>
CN(C)S(=O)c1nc2ccccc2s1 (centres undefined)

>  <melting point>
121 to 122 °C

$$$$
>  <MOLECULE>
O=C(O)Cc1cc(Br)c(S(=O)(=O)c2ccc(O)c(C3CCCC3)c2)c(Br)c1

>  <melting point>
171 to 174 °C

$$$$
>  <MOLECULE>
O=C(c1ccccc1C(c1ccc(O)cc1)c1ccc(O)cc1)N(C1CCCCC1)C1CCCCC1

>  <melting point>
> 300 °C

$$$$
>  <MOLECULE>
CCCOCCc1ccc(-c2ccc3c(c2)C=C(C(=O)Nc2ccc(CN(C)C4CCOCC4)cc2)CCS3(=O)=O)c(Cl)c1

>  <melting point>
150 to 152 °C

$$$$
>  <MOLECULE>
O=C1Nc2ccc(C#CCCN3CCC(Cc4ccccc4)CC3)cc2C1=O

>  <melting point>
140 to 141 °C

$$$$
>  <MOLECULE>
C[C@@H](O[Si](C)(C)C(C)(C)C)[C@@H]1C(=O)N[C@@H]1S(=O)(=O)c1ccc([N+](=O)[O-])cc1[N+](=O)[O-]

>  <melting point>
148 to 149 °C

$$$$
>  <MOLECULE>
COc1cccc2c1CC(N(CCCc1cn(C)c3ccc(F)cc13)CC1CC1)CO2 (centres undefined)

>  <melting point>
86 °C

$$$$
>  <MOLECULE>
CCOc1cccc(C(=O)Nc2ccc(C(=O)N3CCCc4ccccc43)cc2)c1

>  <melting point>
170 to 172 °C

$$$$
>  <MOLECULE>
CC(c1oc2ccccc2c(=O)c1-c1cccc(F)c1)n1nc(-c2ccc(F)nc2)c2c(N)ncnc21 (centres undefined)

>  <melting point>
203 to 206 °C

$$$$
>  <MOLECULE>
O=C(O)CCC(=O)c1ccc2sc3ccccc3c2c1

>  <melting point>
157 to 158 °C

$$$$
>  <MOLECULE>
CCC1(CCCCN2CCc3sc(Cl)cc3C2)C(=O)Nc2ccccc21 (centres undefined)

>  <melting point>
117 to 119 °C

$$$$
>  <MOLECULE>
O=c1c2c(c1=O)N(CCP(=O)(O)O)CC(O)CN2 (centres undefined)

>  <melting point>
215 to 218 °C

$$$$
>  <MOLECULE>
Cc1oc(-c2ccc(C(C)C)cc2)nc1CCOc1ccc(C[C@H](OCC(F)(F)F)C(=O)O)c2sccc12

>  <melting point>
181 to 182 °C

$$$$
>  <MOLECULE>
NNC(=O)c1ccc2[nH]nnc2c1

>  <melting point>
295 to 296 °C

$$$$
>  <MOLECULE>
COc1ccccc1Oc1c(O)nc(-c2cccc(OCc3ccccc3)c2)nc1O

>  <melting point>
192 to 195 °C

$$$$
>  <MOLECULE>
Cc1ccc(S(=O)(=O)N(c2ccc(Cl)cc2C(N)=S)C(C)C)cc1

>  <melting point>
189 to 191 °C

$$$$
>  <MOLECULE>
CON(Cc1ccccc1C)C(=O)C1=C(O)C(=O)N(C)C1

>  <melting point>
153 to 154 °C

$$$$
>  <MOLECULE>
CC(C)(CO)COc1ccc(N)cc1C#N

>  <melting point>
194 to 196 °C

$$$$
>  <MOLECULE>
O=C(Nc1ccc(N2CCOCC2=O)cc1)[C@H]1CCCN1C(=O)c1ccc(Cl)s1

>  <melting point>
195 °C

$$$$
>  <MOLECULE>
COC(=O)COc1cccc(CN(C)c2cnc(-c3ccccc3)c(-c3ccccc3)n2)c1

>  <melting point>
132 to 134 °C

$$$$
>  <MOLECULE>
O=C(Nc1ccc(N2CCN(Cc3ccccc3)CC2)cc1)c1ccccc1-c1ccccc1

>  <melting point>
162 °C

$$$$
>  <MOLECULE>
NC(=O)N(O)Cc1cc(-c2ccc(Cl)cc2)n(-c2ccc(S(N)(=O)=O)cc2)n1

>  <melting point>
216 to 218 °C

$$$$
>  <MOLECULE>
Cc1ccnc(CSc2nc3ccccc3c(=O)n2-c2ccccc2)c1

>  <melting point>
145 to 150 °C

$$$$
>  <MOLECULE>
CCOC(=O)c1cn(Cc2cnsn2)c2cc(F)c(F)cc2c1=O

>  <melting point>
198 to 201 °C

$$$$
>  <MOLECULE>
Nc1ccc(CN2CCNC(=O)C2=O)cc1

>  <melting point>
246 to 249 °C

$$$$
>  <MOLECULE>
O=S(=O)(NCCO)c1ccc(-c2ccc(S(=O)(=O)NCCO)cc2)cc1

>  <melting point>
203 to 206 °C

$$$$
>  <MOLECULE>
CCn1cc(C(=O)O)c(=O)c2cc(F)c(N3CCN(S(=O)(=O)c4ccc(C)cc4)CC3)c(F)c21

>  <melting point>
236 to 237 °C

$$$$
>  <MOLECULE>
CCOC(=O)C1CSC(COc2ccc(OC)cc2)N1C(=O)CCl (centres undefined)

>  <melting point>
69 to 71 °C

$$$$
>  <MOLECULE>
O=C1c2ccccc2C(=O)N1Cc1cccc(-c2nc(=O)c3ccccc3s2)n1

>  <melting point>
280 to 281 °C

$$$$
>  <MOLECULE>
COC(=O)c1cc2ccc(OC)cc2cc1/N=C/N(C)C

>  <melting point>
122 to 124 °C

$$$$
>  <MOLECULE>
CCOC(=O)CNC(=O)[C@@H]1CS[C@H](c2ccccc2O)N1C(=O)CCSC(=O)c1ccccc1

>  <melting point>
134 to 135 °C

$$$$
>  <MOLECULE>
Nc1cn2cc(Sc3ccccc3)ccc2n1

>  <melting point>
110 to 112 °C

$$$$
>  <MOLECULE>
CC12CCC(O)CC1CCC1C2CCC2(C)C(C(O)CO)CCC12 (centres undefined)

>  <melting point>
210 to 212 °C

$$$$
